Experiment: soluble on expression in E. coli; label from the status in PepcDB or PDB records

# POLYMER_SEQUENCE, soluble on expression in E. coli
data = [
    ("GSGYREVEYWDQRYQGAADSAPYDWFGDFSSFRALLEPELRPEDRILVLGCGNSALSYELFLGGFPNVTSVDYSSVVVAAMQACYAHVPQLRWETMDVRKLDFPSASFDVVLEKGTLDALLAGERDPWTVSSEGVHTVDQVLSEVSRVLVPGGRFISMTSAAPHFRTRHYAQAYYGWSLRHATYGSGFHFHLYLMHKGGKLSVAQLALGAQILSP", "soluble"),
    ("MSLKLYYQQAMLLPKTKEILLRWEGVLSAGQRKASNAVVINLKGKMDMLLWAVAGSGKTEMMFEGMDWALRQGFRICVASPRVDVCLELLPRLKEAFPSMDIVCLYGDSKDNYQGEQFVIATTHQLIRFYETFQVIFIDEVDAFPYAKDPFLEYAVMKARTKEGSTIIITATPEKKWQEECVKGKRNFVKIPGRYHREGHHHHHH", "soluble"),
]
